# System: ME-1 (Acute Myeloid Leukemia)
# assay-method-text: combination Emax (second highest fraction inhibited in the dose matrix, 72 h); higher = more inhibition; extreme values may be limits of the assay
Binary call on combination Emax: YES from 0.8 upward, NO beneath that.

Does Cc1c2c(nn1C)CSCc1cc(n(C)n1)CSc1cc(c3ccccc3c1)OCCCc1c(C(=O)O)n(C)c3c-2c(Cl)ccc13 [AZD5991] + CC(=O)O[C@H]1C(=O)[C@@]2(C)[C@H]([C@H](OC(=O)c3ccccc3)[C@]3(O)C[C@H](OC(=O)[C@H](O)[C@@H](NC(=O)c4ccccc4)c4ccccc4)C(C)=C1C3(C)C)[C@]1(OC(C)=O)CO[C@@H]1C[C@@H]2O [Paclitaxel] (first compound max 1 µM, 7x7, partner max 3 µM) have a reported combination Emax of at least 0.8?
NO

And then Cc1c2c(nn1C)CSCc1cc(n(C)n1)CSc1cc(c3ccccc3c1)OCCCc1c(C(=O)O)n(C)c3c-2c(Cl)ccc13 [AZD5991] + CCN(CCO)CCCOc1ccc2c(Nc3cc(CC(=O)Nc4cccc(F)c4)[nH]n3)ncnc2c1 [AZD2811] (first compound max 1 µM, 7x7, partner max 1 µM) , what is it?
NO

Likewise for CC1(C)CCC(CN2CCN(c3ccc(C(=O)NS(=O)(=O)c4ccc(NCC5CCOCC5)c([N+](=O)[O-])c4)c(Oc4cnc5[nH]ccc5c4)c3)CC2)=C(c2ccc(Cl)cc2)C1 [Venetoclax] + COc1cc(Nc2ncc3c(n2)-c2ccc(Cl)cc2C(c2c(F)cccc2OC)=NC3)ccc1C(=O)O [Alisertib] (first compound max 1 µM, 7x7, partner max 10 µM) ?
YES

Item: Cc1c2c(nn1C)CSCc1cc(n(C)n1)CSc1cc(c3ccccc3c1)OCCCc1c(C(=O)O)n(C)c3c-2c(Cl)ccc13 [AZD5991] + Cc1cc2ncnn2cc1Nc1ncc2c(n1)n(C1CCOCC1)c(=O)n2C [AZD7648] (first compound max 1 µM, 7x7, partner max 10 µM)
NO

Item: N#Cc1cnc(Nc2cc(NC[C@H]3CNCCO3)c(C(F)(F)F)cn2)cn1 [SRA737] + Nc1ccn([C@@H]2O[C@H](CO)[C@@H](O)C2(F)F)c(=O)n1 [Gemcitabine] (first compound max 10 µM, 7x7, partner max 0.3 µM)
NO

// same read-out, input: Cc1cc2ncnn2cc1Nc1ncc2c(n1)n(C1CCOCC1)c(=O)n2C [AZD7648] + COc1cc([C@@H]2c3cc4c(cc3[C@@H](O[C@@H]3O[C@@H]5CO[C@@H](C)O[C@H]5[C@H](O)[C@H]3O)[C@H]3COC(=O)[C@H]23)OCO4)cc(OC)c1O [Etoposide] (first compound max 10 µM, 7x7, partner max 10 µM)
NO

====

# Test system: DoTc2-4510 (Cervical Carcinoma)
# assay-method-text: combination Emax (second highest fraction inhibited in the dose matrix, 72 h); higher = more inhibition; extreme values may be limits of the assay
result-type: combination Emax

Reported combination Emax, compound COc1cccc(OCCCN)c1-c1cc(Nc2cnc(C#N)cn2)n[nH]1 [Prexasertib] + C=CCn1c(=O)c2cnc(Nc3ccc(N4CCN(C)CC4)cc3)nc2n1-c1cccc(C(C)(C)O)n1 [AZD1775] (first compound max 1 µM, partner max 1 µM) : ____
0.906

Also CC(=O)c1c(C)c2cnc(Nc3ccc(N4CCNCC4)cn3)nc2n(C2CCCC2)c1=O [Palbociclib] + Cc1c2c(nn1C)CSCc1cc(n(C)n1)CSc1cc(c3ccccc3c1)OCCCc1c(C(=O)O)n(C)c3c-2c(Cl)ccc13 [AZD5991] (first compound max 10 µM, 7x7, partner max 1 µM) ?
0.215

====

# Tested on: DoTc2-4510 (Cervical Carcinoma)
# assay-method-text: Bliss excess, mean over the matrix (fraction); higher = more synergy
Could you label it class 1 if measured Bliss excess is -0.02 or higher, and class 0 otherwise?

# check: Bliss excess of COc1nnc2ccc(N3CCC(c4ccc(OCCN5CCN(C)C(=O)[C@H]5C)cc4)CC3)nn12 [AZD5153] + C[C@@H]1COCCN1C2=NC(=NC(=C2)C3(CC3)[S@](=N)(=O)C)C4=C5C=CNC5=NC=C4 [AZD6738] (first compound max 1 µM, 7x7, partner max 10 µM) is greater than or equal to -0.02
class 1

Ok, now Cc1c2c(nn1C)CSCc1cc(n(C)n1)CSc1cc(c3ccccc3c1)OCCCc1c(C(=O)O)n(C)c3c-2c(Cl)ccc13 [AZD5991] + Cn1cnc2c(F)c(Nc3ccc(Br)cc3Cl)c(C(=O)NOCCO)cc21 [Selumetinib] (first compound max 1 µM, 7x7, partner max 3 µM)
class 1

What do you have for N#Cc1cnc(Nc2cc(NC[C@H]3CNCCO3)c(C(F)(F)F)cn2)cn1 [SRA737] + Nc1ccn([C@@H]2O[C@H](CO)[C@@H](O)C2(F)F)c(=O)n1 [Gemcitabine] (first compound max 10 µM, 7x7, partner max 0.3 µM) ?
class 1

Field entry: CC1(C)CCC(CN2CCN(c3ccc(C(=O)NS(=O)(=O)c4ccc(NCC5CCOCC5)c([N+](=O)[O-])c4)c(Oc4cnc5[nH]ccc5c4)c3)CC2)=C(c2ccc(Cl)cc2)C1 [Venetoclax] + CS(=O)(=O)CCNCc1ccc(-c2ccc3ncnc(Nc4ccc(OCc5cccc(F)c5)c(Cl)c4)c3c2)o1 [Lapatinib] (first compound max 1 µM, 7x7, partner max 10 µM)
class 0

Same lookup for CCc1c2c(nc3ccc(O)cc13)-c1cc3c(c(=O)n1C2)COC(=O)[C@]3(O)CC [SN-38] + CN(C)CCCOc1ccc(-c2ccc3ncc4c(c3c2)n(C2CCOCC2)c(=O)n4C)cn1 [AZD0156] (first compound max 0.3 µM, 7x7, partner max 1 µM) , please.
class 1

// repeat for CC(=O)c1c(C)c2cnc(Nc3ccc(N4CCNCC4)cn3)nc2n(C2CCCC2)c1=O [Palbociclib] + CC1(C)CCC(CN2CCN(c3ccc(C(=O)NS(=O)(=O)c4ccc(NCC5CCOCC5)c([N+](=O)[O-])c4)c(Oc4cnc5[nH]ccc5c4)c3)CC2)=C(c2ccc(Cl)cc2)C1 [Venetoclax] (first compound max 10 µM, 7x7, partner max 1 µM) and report
class 0

====

# Test system: Daoy (Other Solid Carcinomas)
# assay-method-text: combination Emax (second highest fraction inhibited in the dose matrix, 72 h); higher = more inhibition; extreme values may be limits of the assay
result-type: combination Emax
Answer using only a numeral; do not append any unit.

Find combination Emax (Daoy (Other Solid Carcinomas)) for the entry COc1nnc2ccc(N3CCC(c4ccc(OCCN5CCN(C)C(=O)[C@H]5C)cc4)CC3)nn12 [AZD5153] + CN(CC[C@H](CSC1=CC=CC=C1)NC2=C(C=C(C=C2)S(=O)(=O)NC(=O)C3=CC=C(C=C3)N4CCC(CC4)[C@H](C5=CC=CC=C5C6=CC=C(C=C6)Cl)O)S(=O)(=O)C(F)(F)F)CCO [AZD4320] (first compound max 1 µM, 7x7, partner max 1 µM)
0.627

Now consider CCN(CCO)CCCOc1ccc2c(Nc3cc(CC(=O)Nc4cccc(F)c4)[nH]n3)ncnc2c1 [AZD2811] + C=CCn1c(=O)c2cnc(Nc3ccc(N4CCN(C)CC4)cc3)nc2n1-c1cccc(C(C)(C)O)n1 [AZD1775] (first compound max 1 µM, partner max 1 µM) and answer again.
0.827

Param item: CS(=O)(=O)CCNCc1ccc(-c2ccc3ncnc(Nc4ccc(OCc5cccc(F)c5)c(Cl)c4)c3c2)o1 [Lapatinib] + C[C@@H](Oc1cc(-c2cnn(C3CCNCC3)c2)cnc1N)c1c(Cl)ccc(F)c1Cl [Crizotinib] (first compound max 10 µM, 7x7, partner max 10 µM)
0.934

====

Would you kindly list combination Emax for each of these compounds?
# System: ME-1 (Acute Myeloid Leukemia)
# assay-method-text: combination Emax (second highest fraction inhibited in the dose matrix, 72 h); higher = more inhibition; extreme values may be limits of the assay
No unit in the answer, please; the number alone is enough.

Please report the recorded combination Emax for COc1cccc(OCCCN)c1-c1cc(Nc2cnc(C#N)cn2)n[nH]1 [Prexasertib] + CN(C)CCCOc1ccc(-c2ccc3ncc4c(c3c2)n(C2CCOCC2)c(=O)n4C)cn1 [AZD0156] (first compound max 1 µM, 7x7, partner max 1 µM) .
0.622

Repeat with CN(CCO)CC[C@H](CSc1ccccc1)Nc1ccc(S(=O)(=O)NC(=O)c2ccc(N3CCC([C@@H](O)c4ccccc4-c4ccc(Cl)cc4)CC3)cc2)cc1S(=O)(=O)C(F)(F)F [AZD4320] + C[C@@H]1COCCN1C2=NC(=NC(=C2)C3(CC3)[S@](=N)(=O)C)C4=C5C=CNC5=NC=C4 [AZD6738] (first compound max 1 µM, 7x7, partner max 10 µM)
1

====

# System: RC-K8 (B-Cell Non-Hodgkin's Lymphoma)
# assay-method-text: combination Emax (second highest fraction inhibited in the dose matrix, 72 h); higher = more inhibition; extreme values may be limits of the assay
result-type: combination Emax
Number only, no unit.

Suppose we examine the molecule CN(CCO)CC[C@H](CSc1ccccc1)Nc1ccc(S(=O)(=O)NC(=O)c2ccc(N3CCC([C@@H](O)c4ccccc4-c4ccc(Cl)cc4)CC3)cc2)cc1S(=O)(=O)C(F)(F)F [AZD4320] + C[C@@H](Nc1cc(F)cc(F)c1)c1cc(C(=O)N(C)C)cc2c(=O)cc(N3CCOCC3)oc12 [AZD8186] (first compound max 1 µM, 7x7, partner max 3 µM) ; what combination Emax value has been reported?
0.999

Request: C=CCn1c(=O)c2cnc(Nc3ccc(N4CCN(C)CC4)cc3)nc2n1-c1cccc(C(C)(C)O)n1 [AZD1775] + C1CN(CCC1(C(=O)N[C@@H](CCO)C2=CC=C(C=C2)Cl)N)C3=NC=NC4=C3C=CN4 [Capivasertib] (first compound max 3 µM, partner max 3 µM)
0.652

Next molecule up: Cc1c2c(nn1C)CSCc1cc(n(C)n1)CSc1cc(c3ccccc3c1)OCCCc1c(C(=O)O)n(C)c3c-2c(Cl)ccc13 [AZD5991] + C=CCn1c(=O)c2cnc(Nc3ccc(N4CCN(C)CC4)cc3)nc2n1-c1cccc(C(C)(C)O)n1 [AZD1775] (first compound max 1 µM, partner max 1 µM)
0.617
